TESTED TARGET: Human AChE (Homo sapiens, UniProt P22303)
Construct: purchased Sigma
Sequence (P22303 32-614): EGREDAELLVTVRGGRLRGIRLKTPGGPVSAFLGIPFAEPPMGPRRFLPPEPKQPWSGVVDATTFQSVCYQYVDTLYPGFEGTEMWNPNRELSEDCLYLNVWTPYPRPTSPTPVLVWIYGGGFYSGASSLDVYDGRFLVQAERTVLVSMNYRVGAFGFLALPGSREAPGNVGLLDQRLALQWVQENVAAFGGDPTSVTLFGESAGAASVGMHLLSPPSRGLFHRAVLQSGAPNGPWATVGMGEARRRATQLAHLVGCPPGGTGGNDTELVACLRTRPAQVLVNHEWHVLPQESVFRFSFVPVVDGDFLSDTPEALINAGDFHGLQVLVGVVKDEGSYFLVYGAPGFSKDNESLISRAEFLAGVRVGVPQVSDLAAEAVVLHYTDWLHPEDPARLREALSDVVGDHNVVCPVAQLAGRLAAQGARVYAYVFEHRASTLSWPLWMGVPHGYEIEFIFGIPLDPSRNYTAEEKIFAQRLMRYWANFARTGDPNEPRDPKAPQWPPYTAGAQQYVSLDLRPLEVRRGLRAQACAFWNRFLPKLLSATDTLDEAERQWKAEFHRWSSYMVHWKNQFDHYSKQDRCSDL
ASSAY PROTOCOL: biochemical
APPLIED CONDITIONS: AChE IC50

| COMPOUND | IC50 |
| --- | --- |
| CN1c2ccc(OC(=O)Nc3ccccc3)cc2[C@]2(C)CCO[C@H]12 | 500 nM |

---

Quick reference: IC50 of the listed items.
TESTED TARGET: human nSMase2 (Homo sapiens, UniProt Q9NY59)
Construct: expressed in transfected cells; host or cells: HEK293T
Sequence (Q9NY59 1-655): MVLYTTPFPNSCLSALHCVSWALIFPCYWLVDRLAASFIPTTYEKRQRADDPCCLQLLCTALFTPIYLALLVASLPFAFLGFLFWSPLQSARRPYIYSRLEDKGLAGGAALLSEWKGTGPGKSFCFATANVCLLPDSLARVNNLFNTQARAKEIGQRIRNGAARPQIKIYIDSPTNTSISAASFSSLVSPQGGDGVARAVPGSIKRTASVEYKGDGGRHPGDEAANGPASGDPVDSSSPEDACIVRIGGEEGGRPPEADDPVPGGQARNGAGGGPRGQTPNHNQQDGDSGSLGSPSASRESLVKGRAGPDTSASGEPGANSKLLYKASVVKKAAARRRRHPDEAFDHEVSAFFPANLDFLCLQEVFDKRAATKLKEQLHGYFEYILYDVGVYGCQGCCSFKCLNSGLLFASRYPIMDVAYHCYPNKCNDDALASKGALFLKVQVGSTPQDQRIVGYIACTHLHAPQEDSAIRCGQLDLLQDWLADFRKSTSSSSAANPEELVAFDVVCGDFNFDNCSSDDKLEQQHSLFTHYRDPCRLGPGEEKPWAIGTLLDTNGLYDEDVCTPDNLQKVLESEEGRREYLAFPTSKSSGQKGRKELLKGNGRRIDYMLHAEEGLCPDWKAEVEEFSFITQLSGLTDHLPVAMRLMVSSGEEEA
ASSAY PROTOCOL: biochemical
Type: biochemical
APPLIED CONDITIONS: IC50 nSMase2
Experimental: To evaluate nSMase2 inhibitory activity of tested compounds, cell lysates from HEK293T cells over-expressing human nSMase2 were used as the source of the nSMase2 enzyme. […] In secondary testing, selected compounds were analyzed at multiple compound concentrations and plotted as a percentage of DMSO control; dose-response curves were generated to determine IC50s using GraphPad Prism software (GraphPad Software, La Jolla Calif.). […]
QUANTITY: IC50 (nM)

| COMPOUND | QUANTITY | SCALE UNIT | RELATION OPERATOR | TEST RESULT |
| --- | --- | --- | --- | --- |
| Cc1cc(C)cc(NC(=O)Oc2ccc3c(c2)[C@]2(C)CCO[C@@H]2N3C)c1 [Compound 6] | IC50 | nM | = | 3600 |
| COc1cc(NC(=O)Oc2ccc3c(c2)[C@]2(C)CCO[C@@H]2N3C)cc(OC)c1 [Compound 7] | IC50 | nM | = | 2000 |
| CN1c2ccc(OC(=O)Nc3ccccc3)cc2[C@]2(C)CCO[C@H]12 [Compound 1, phensvenine] | IC50 | nM | > | 1000 |
| COc1ccc(NC(=O)Oc2ccc3c(c2)[C@]2(C)CCO[C@@H]2N3C)cc1 [Compound 2] | IC50 | nM | = | 700 |
| CN1c2ccc(OC(=O)NC3CCCCC3)cc2[C@]2(C)CCO[C@H]12 [Compound 5] | IC50 | nM | = | 3400 |
| CN1c2ccc(OC(=O)Nc3ccncc3F)cc2[C@]2(C)CCO[C@H]12 [Compound 13] | IC50 | nM | = | 600 |
| CN1c2ccc(OC(=O)Nc3cncc(F)c3)cc2[C@]2(C)CCO[C@H]12 [Compound 14] | IC50 | nM | = | 900 |
| CC[C@H]1C[C@@]2(C)c3cc(OC(=O)Nc4ccccc4)ccc3N(C)[C@H]2O1 [Compound 9] | IC50 | nM | > | 5000 |
| CN1c2ccc(OC(=O)Nc3ccccn3)cc2[C@]2(C)CCO[C@H]12 [Compound 12] | IC50 | nM | = | 800 |
| CN1c2ccc(OC(=O)Nc3ccc(OC(F)(F)F)cc3)cc2[C@]2(C)CCO[C@H]12 [Compound 4] | IC50 | nM | = | 2700 |

---

TESTED TARGET: Human AChE (Homo sapiens)
Construct: purchased Sigma
ASSAY PROTOCOL: biochemical
APPLIED CONDITIONS: IC50 AChE
Quick reference for IC50 among some compounds

| COMPOUND | RELATION OPERATOR | IC50 / nM |
| --- | --- | --- |
| CN1c2ccc(OC(=O)Nc3cncc(F)c3)cc2[C@]2(C)CCO[C@H]12 [Compound 14] | > | 5000 |
| CN1c2ccc(OC(=O)Nc3ccccn3)cc2[C@]2(C)CCO[C@H]12 [Compound 12] | > | 5000 |
| CC[C@H]1C[C@@]2(C)c3cc(OC(=O)Nc4ccccc4)ccc3N(C)[C@H]2O1 [Compound 9] | = | 2500 |
| COc1cc(NC(=O)Oc2ccc3c(c2)[C@]2(C)CCO[C@@H]2N3C)cc(OC)c1 [Compound 7] | = | 300 |

---

TESTED TARGET: Human AChE (Homo sapiens)
Construct: purchased Sigma
ASSAY PROTOCOL: biochemical
APPLIED CONDITIONS: AChE activity
Method: This acetylcholinesterase (AChE) assay is based on an Amplex Red assay kit (Thermo Fisher A12217). Human AChE (Sigma) was used. Briefly, 5 μL of compounds at the desired concentration were loaded into wells of a 384-well plate. […] The reaction was monitored for 60 minutes and read at 530/590 nm. AChE IC50 was determined by plotting AChE activity as a percentage of DMSO control using GraphPad Prism software.
pIC50: −log10 of the molar value.

| MOLECULE | TESTED TARGET | pIC50 |
| --- | --- | --- |
| CC[C@@H]1C[C@@]2(C)c3cc(OC(=O)Nc4ccccc4)ccc3N(C)[C@H]2O1 [drawing 43] | Human AChE (Homo sapiens) | 5.30 to 5.60 |
| CCN(C)C(=O)Oc1ccc2c(c1)[C@]1(C)CCO[C@@H]1N2C [drawing 65] | Human AChE (Homo sapiens) | < 5.30 |
| CN1c2ccc(OC(=O)NC3CCCCC3)cc2[C@]2(C)CCO[C@H]12 [drawing 36] | Human AChE (Homo sapiens) | > 6.30 |
| COc1cccc(NC(=O)Oc2ccc3c(c2)[C@]2(C)CCO[C@@H]2N3C)c1 [drawing 34] | Human AChE (Homo sapiens) | > 6.30 |
| CN1c2ccc(OC(=O)Nc3ccncc3F)cc2[C@]2(C)CCO[C@H]12 [drawing 62] | Human AChE (Homo sapiens) | < 5.30 |
| CN1c2ccc(OC(=O)Nc3ccncc3)cc2[C@]2(C)CCO[C@H]12 (racemic) | Human AChE (Homo sapiens) | < 5.30 |
| CN1c2ccc(OC(=O)Nc3ccccn3)cc2[C@]2(C)CCO[C@H]12 [drawing 45] | Human AChE (Homo sapiens) | < 5.30 |
| CN1c2ccc(OC(=O)Nc3ccccc3)cc2[C@]2(C)CCO[C@H]12 [drawing 32] | Human AChE (Homo sapiens) | > 6.30 |

---

TESTED TARGET: human serum albumin (HSA) (Homo sapiens)
Sequence (P02768 25-609): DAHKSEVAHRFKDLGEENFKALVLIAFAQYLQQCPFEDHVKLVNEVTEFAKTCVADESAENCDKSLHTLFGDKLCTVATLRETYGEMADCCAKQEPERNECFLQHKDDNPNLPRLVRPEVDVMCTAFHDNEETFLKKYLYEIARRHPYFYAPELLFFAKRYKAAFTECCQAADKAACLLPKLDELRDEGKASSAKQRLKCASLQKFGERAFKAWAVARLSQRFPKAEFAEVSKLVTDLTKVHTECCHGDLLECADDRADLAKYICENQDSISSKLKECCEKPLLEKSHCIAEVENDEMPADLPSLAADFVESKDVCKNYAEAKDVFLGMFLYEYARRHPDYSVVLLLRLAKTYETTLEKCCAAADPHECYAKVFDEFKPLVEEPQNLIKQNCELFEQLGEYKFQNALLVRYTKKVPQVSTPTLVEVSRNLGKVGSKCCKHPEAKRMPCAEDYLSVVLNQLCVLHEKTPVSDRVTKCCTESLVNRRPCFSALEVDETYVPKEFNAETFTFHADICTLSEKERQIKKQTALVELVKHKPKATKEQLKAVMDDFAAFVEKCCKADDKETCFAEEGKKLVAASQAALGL
ASSAY PROTOCOL: Binding to human serum albumin (HSA)
APPLIED CONDITIONS: human, human serum albumin

| COMPOUND | fraction unbound |
| --- | --- |
| CN1c2ccc(OC(=O)Nc3ccncc3F)cc2[C@]2(C)CCO[C@H]12 | 0.35 |
| CN1c2ccc(OC(=O)Nc3cncc(F)c3)cc2[C@]2(C)CCO[C@H]12 | 0.21 |
| CN1c2ccc(OC(=O)Nc3ccncc3)cc2[C@]2(C)CCO[C@H]12 | 0.28 |
| CN1c2ccc(OC(=O)Nc3ccccn3)cc2[C@]2(C)CCO[C@H]12 | 0.28 |
| CC[C@@H]1C[C@@]2(C)c3cc(OC(=O)Nc4ccccc4)ccc3N(C)[C@H]2O1 | 0.05 |
| COc1ccc(NC(=O)Oc2ccc3c(c2)[C@]2(C)CCO[C@@H]2N3C)cc1 | 0.15 |
| COc1cccc(NC(=O)Oc2ccc3c(c2)[C@]2(C)CCO[C@@H]2N3C)c1 | 0.1 |
| CN1c2ccc(OC(=O)Nc3ccccc3)cc2[C@]2(C)CCO[C@H]12 | 0.12 |

---

Attribute: IC50
TESTED TARGET: human nSMase2 (Homo sapiens)
Construct: expressed in transfected cells; host or cells: HEK293T
Sequence (Q9NY59 1-655): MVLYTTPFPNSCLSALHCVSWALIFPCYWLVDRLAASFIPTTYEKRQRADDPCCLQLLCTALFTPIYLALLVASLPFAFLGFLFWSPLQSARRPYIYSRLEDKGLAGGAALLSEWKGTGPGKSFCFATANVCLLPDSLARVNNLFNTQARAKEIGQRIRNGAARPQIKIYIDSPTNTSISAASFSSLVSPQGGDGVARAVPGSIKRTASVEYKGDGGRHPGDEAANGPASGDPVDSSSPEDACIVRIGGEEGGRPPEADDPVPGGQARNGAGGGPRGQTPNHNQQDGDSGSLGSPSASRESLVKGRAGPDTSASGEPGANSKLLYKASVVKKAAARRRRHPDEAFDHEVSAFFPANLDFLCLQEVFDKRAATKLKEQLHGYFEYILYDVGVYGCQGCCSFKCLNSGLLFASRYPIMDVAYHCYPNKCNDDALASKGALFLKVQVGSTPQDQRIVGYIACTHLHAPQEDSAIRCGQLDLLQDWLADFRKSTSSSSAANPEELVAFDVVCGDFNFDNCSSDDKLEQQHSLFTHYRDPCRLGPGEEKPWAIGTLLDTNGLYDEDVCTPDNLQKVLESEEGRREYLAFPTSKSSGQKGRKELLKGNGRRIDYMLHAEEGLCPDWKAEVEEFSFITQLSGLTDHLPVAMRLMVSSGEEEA
ASSAY PROTOCOL: biochemical
Assay type: biochemical
APPLIED CONDITIONS: IC50 (nSMase2) Groups: A-D

| COMPOUND | IC50 |
| --- | --- |
| C[C@@]12CCO[C@@H]1Nc1ccc(Br)nc12 | > 50 µM |
| COc1cc(NC(=O)Oc2ccc3c(c2)[C@]2(C)CCO[C@@H]2N3C)cc(OC)c1 [drawing 38] | 1 to 10 µM |
| CN1c2ccc(OC(=O)Nc3ccccc3)cc2[C@]2(C)CCO[C@H]12 [drawing 32] | 1 to 10 µM |
| C[C@@]12CCO[C@@H]1Nc1ccc(O)nc12 | > 50 µM |
| COc1nccc2c1N[C@H]1OCC[C@@]21C | > 50 µM |
